The reported numbers originate from ChEMBL document CHEMBL5150045.

test: Cytotoxicity against human HepG2 cells; type: toxicity, cell-based

{"columns": ["COMPOUND", "CC50"],
 "data": [
  ["O=C(CC1NCCCC1O)Cn1cnc2cc(Br)c(Cl)cc2c1=O (configuration not stated) [HALOFUGINONE]", "4.32 µM"],
  ["O=C(C[C@@H]1CCCCN1)Cn1cnc2cc(Cl)c(F)cc2c1=O", "0.076 µM"]
]}

====

experiment: Selectivity index, ratio of CC50 for human HepG2 cells to MIC for methicillin-resistant Staphylococcus aureus 252; assay type: toxicity; conditions: read-out: Selectivity Index
MEASUREMENT_TYPE: selectivity ratio

{"columns": ["MOL_SMILES", "MEASUREMENT"],
 "data": [
  ["O=C(C[C@@H]1CCCCN1)Cn1cnc2cc(Cl)c(F)cc2c1=O", 3600]
]}

====

Overview of reported MIC across a group of molecules:
tested on: Staphylococcus aureus; test: Antibacterial activity against methicillin-resistant Staphylococcus aureus 252 assessed as prevention of visible growth by broth microdilution method; assay type: functional

{"columns": ["MOLECULE", "UNIT_SYMBOL", "MODIFIER", "MIC"],
 "data": [
  ["O=C(C[C@@H]1CCCCN1)Cn1cnc2ccc(F)cc2c1=O", "µg/mL", "=", 32],
  ["O=C(C[C@@H]1CCCCN1)Cn1cnc2ccc(C(F)(F)F)cc2c1=O", "µg/mL", "=", 64],
  ["O=C(C[C@@H]1CCCCN1)Cn1cnc2cccnc2c1=O", "µg/mL", ">", 64],
  ["O=C(C[C@@H]1CCCCN1)Cn1cnc2cc(C(F)(F)F)ccc2c1=O", "µg/mL", ">", 64],
  ["O=C(C[C@@H]1CCCCN1)Cn1cnc2cc(F)c(F)cc2c1=O", "µg/mL", "=", 16],
  ["O=C(C[C@@H]1CCCCN1)Cn1cnc2cccc(Cl)c2c1=O", "µg/mL", ">", 64],
  ["O=C(C[C@@H]1CCCCN1)Cn1cnc2ccccc2c1=O", "µg/mL", "=", 16],
  ["O=C(C[C@@H]1CCCCN1)Cn1cnc2cc3c(cc2c1=O)OCO3", "µg/mL", ">", 64],
  ["O=C(C[C@@H]1CCCCN1)Cn1cnc2nccnc2c1=O", "µg/mL", ">", 64],
  ["O=c1c2cc(Cl)c(Cl)cc2ncn1CCC[C@@H]1CCCCN1", "µg/mL", ">", 64],
  ["O=c1c2cc(Cl)c(Br)cc2ncn1CCC[C@@H]1CCCCN1", "µg/mL", "=", 64],
  ["O=c1c2cc(Cl)c(Br)cc2ncn1CC(O)C[C@@H]1CCCCN1 (some centres not stated)", "µg/mL", ">", 64]
]}

====

species on record: Homo sapiens; experiment: Inhibition of human ProRS expressed in Escherichia coli assessed as change in melting temperature in presence of AMPPNP at 0.5 mM by fluorescence-based thermal shift assay

{"columns": ["MOL_SMILES", "ΔTm"],
 "data": [
  ["O=C(C[C@@H]1CCCCN1)Cn1cnc2ccccc2c1=O", "15.7 °C"],
  ["O=C(C[C@@H]1CCCCN1)Cn1cnc2cccnc2c1=O", "6.9 °C"],
  ["O=c1c2cc(Cl)c(Br)cc2ncn1CCC[C@@H]1CCCCN1", "15.1 °C"],
  ["COc1cc2ncn(CC(=O)C[C@@H]3CCCCN3)c(=O)c2cc1OC", "4.2 °C"],
  ["O=c1c2ccccc2ncn1CCC[C@@H]1CCCCN1", "4.2 °C"],
  ["O=C(C[C@@H]1CCCCN1)Cn1cnc2cc3ccccc3cc2c1=O", "7.9 °C"]
]}

====

system: Staphylococcus aureus; experiment: Antibacterial activity against methicillin-resistant Staphylococcus aureus 252 assessed as prevention of visible growth by broth microdilution method; format: functional

{"columns": ["COMPOUND", "TARGET_OR_TEST_SYSTEM", "UNIT_SYMBOL", "MODIFIER", "MIC"],
 "data": [
  ["C/C(=C\\C(=O)OCCCCCCCCC(=O)O)C[C@@H]1OC[C@H](C[C@@H]2O[C@H]2[C@@H](C)[C@H](C)O)[C@@H](O)[C@H]1O", "Staphylococcus aureus", "µg/mL", "=", 0.13],
  ["O=c1c2ccccc2ncn1CCC[C@@H]1CCCCN1", "Staphylococcus aureus", "µg/mL", ">", 64],
  ["O=C(C[C@@H]1CCCCN1)Cn1cnc2cc(F)ccc2c1=O", "Staphylococcus aureus", "µg/mL", "=", 32],
  ["O=C(C[C@@H]1CCCCN1)Cn1cnc2cc(Br)c(Cl)cc2c1=O", "Staphylococcus aureus", "µg/mL", "=", 16],
  ["Cc1cc2ncn(CC(=O)C[C@@H]3CCCCN3)c(=O)c2cc1C", "Staphylococcus aureus", "µg/mL", ">", 64],
  ["O=C(CC1NCCCC1O)Cn1cnc2cc(Br)c(Cl)cc2c1=O (stereo unspecified)", "Staphylococcus aureus", "µg/mL", "=", 64],
  ["O=C(C[C@@H]1CCCCN1)Cn1cnc2cc3ccccc3cc2c1=O", "Staphylococcus aureus", "µg/mL", ">", 64],
  ["O=C(C[C@@H]1CCCCN1)Cn1cnc2cc(Cl)c(Cl)cc2c1=O", "Staphylococcus aureus", "µg/mL", "=", 4],
  ["CC(C)(C)c1ccc2c(=O)n(CC(=O)C[C@@H]3CCCCN3)cnc2c1", "Staphylococcus aureus", "µg/mL", ">", 64],
  ["O=C(C[C@@H]1CCCCN1)Cn1cnc2cc(Cl)c(F)cc2c1=O", "Staphylococcus aureus", "µg/mL", "=", 1],
  ["COc1cc2ncn(CC(=O)C[C@@H]3CCCCN3)c(=O)c2cc1OC", "Staphylococcus aureus", "µg/mL", ">", 64]
]}

====

system: Shigella flexneri; experiment: Antibacterial activity against Shigella flexneri CMCC51572 assessed as prevention of visible growth by broth microdilution method; type: functional
Assign labels as follows, please: T for MIC below 8 µg/mL; F for MIC equal to or exceeding 8 µg/mL.

{"columns": ["MOLECULE", "CATEGORY_LABEL"],
 "data": [
  ["O=C(C[C@@H]1CCCCN1)Cn1cnc2ccc(C(F)(F)F)cc2c1=O", "F"],
  ["O=C(C[C@@H]1CCCCN1)Cn1cnc2cc(Cl)c(F)cc2c1=O", "T"],
  ["O=c1c2ccccc2ncn1CCC[C@@H]1CCCCN1", "F"],
  ["O=C(C[C@@H]1CCCCN1)Cn1cnc2cccc(Cl)c2c1=O", "F"],
  ["O=c1c2cc(Cl)c(Cl)cc2ncn1CCC[C@@H]1CCCCN1", "F"],
  ["O=C(C[C@@H]1CCCCN1)Cn1cnc2cc(Cl)c(Cl)cc2c1=O", "F"],
  ["O=C(C[C@@H]1CCCCN1)Cn1cnc2cc(C(F)(F)F)ccc2c1=O", "F"],
  ["O=C(CC1NCCCC1O)Cn1cnc2cc(Br)c(Cl)cc2c1=O (stereo unspecified) [HALOFUGINONE]", "F"],
  ["O=C(C[C@@H]1CCCCN1)Cn1cnc2cc(F)c(F)cc2c1=O", "T"],
  ["O=C(C[C@@H]1CCCCN1)Cn1cnc2ccc(F)cc2c1=O", "F"],
  ["Cc1cc2ncn(CC(=O)C[C@@H]3CCCCN3)c(=O)c2cc1C", "F"],
  ["O=C(C[C@@H]1CCCCN1)Cn1cnc2cc3ccccc3cc2c1=O", "F"],
  ["CC1(C)S[C@@H]2[C@H](NC(=O)[C@H](N)c3ccccc3)C(=O)N2[C@H]1C(=O)O [AMPICILLIN]", "T"],
  ["O=c1c2cc(Cl)c(Br)cc2ncn1CC(O)C[C@@H]1CCCCN1 (stereo partly specified)", "F"],
  ["O=C(O)c1cn(C2CC2)c2cc(N3CCNCC3)c(F)cc2c1=O [CIPROFLOXACIN]", "T"],
  ["O=c1c2cc(Cl)c(Br)cc2ncn1CCC[C@@H]1CCCCN1", "F"],
  ["CC(C)(C)c1ccc2c(=O)n(CC(=O)C[C@@H]3CCCCN3)cnc2c1", "F"],
  ["O=C(C[C@@H]1CCCCN1)Cn1cnc2ccccc2c1=O", "F"],
  ["O=C(C[C@@H]1CCCCN1)Cn1cnc2cc(Br)c(Cl)cc2c1=O", "F"]
]}

====

tested on: Staphylococcus aureus; experiment: Inhibition of methicillin-resistant Staphylococcus aureus ProRS expressed in Escherichia coli assessed as change in melting temperature in presence of AMPPNP at 0.5 mM by fluorescence-based thermal shift assay
Please note: Yes applies when ΔTm is 2 °C or greater, and No applies otherwise.

{"columns": ["COMPOUND", "CATEGORY_LABEL"],
 "data": [
  ["COc1cc2ncn(CC(=O)C[C@@H]3CCCCN3)c(=O)c2cc1OC", "No"],
  ["O=C(C[C@@H]1CCCCN1)Cn1cnc2cc(Cl)c(F)cc2c1=O", "Yes"],
  ["O=c1c2ccccc2ncn1CCC[C@@H]1CCCCN1", "No"],
  ["O=C(C[C@@H]1CCCCN1)Cn1cnc2cc(Br)c(Cl)cc2c1=O", "Yes"],
  ["O=c1c2cc(Cl)c(Br)cc2ncn1CC(O)C[C@@H]1CCCCN1 (stereo not given in full)", "No"],
  ["O=C(C[C@@H]1CCCCN1)Cn1cnc2cc(F)ccc2c1=O", "Yes"],
  ["CC(C)(C)c1ccc2c(=O)n(CC(=O)C[C@@H]3CCCCN3)cnc2c1", "No"],
  ["O=C(C[C@@H]1CCCCN1)Cn1cnc2cc3c(cc2c1=O)OCO3", "Yes"],
  ["O=C(C[C@@H]1CCCCN1)Cn1cnc2cc(Cl)c(Cl)cc2c1=O", "Yes"]
]}
